Values were extracted from patent US20200405696A1.

studySystem: Recombinant full-length human IDO1 (Homo sapiens)
Construct: Recombinant full-length human IDO1 with a N-terminal hexahistidine tag; hexahistidine (His6) (N); made in house; host or cells: E. coli
methodDescription: IDO1 enzymatic assay (NFK quantified by LCMS)
Type: biochemical
experimentalParameters: 2 nM enzyme, 5 μM L-tryptophan, pH6.5, 30 minutes pre-incubation at RT; mean values when measured multiple times; read-out: hIDO activity (IC50 in nM)
reportedMetric: IC50 (nM)

OC(c1cn(-c2ccc(N3CCOCC3)cc2)nn1)c1c(C2CC2)sc2cncn12 (racemic)    72.7
CC(C)(O)COc1ccc(-n2cc(C(O)c3c(C4CC4)sc4cncn34)nn2)cc1 (racemic)    14.6
COc1cc(-n2cc(C(O)c3c(C4CC4)sc4cncn34)nn2)cnc1OC (racemic)    51.2
CCc1sc2cncn2c1C(O)c1cn(-c2ccc(C(=O)NCCCOC)cc2)nn1 (racemic)    20.1

====

studySystem: Recombinant full-length human IDO1 (Homo sapiens, UniProt P14902)
Construct: Recombinant full-length human IDO1 with a N-terminal hexahistidine tag; hexahistidine (His6) (N); made in house; host or cells: E. coli
Sequence (P14902 whole entry): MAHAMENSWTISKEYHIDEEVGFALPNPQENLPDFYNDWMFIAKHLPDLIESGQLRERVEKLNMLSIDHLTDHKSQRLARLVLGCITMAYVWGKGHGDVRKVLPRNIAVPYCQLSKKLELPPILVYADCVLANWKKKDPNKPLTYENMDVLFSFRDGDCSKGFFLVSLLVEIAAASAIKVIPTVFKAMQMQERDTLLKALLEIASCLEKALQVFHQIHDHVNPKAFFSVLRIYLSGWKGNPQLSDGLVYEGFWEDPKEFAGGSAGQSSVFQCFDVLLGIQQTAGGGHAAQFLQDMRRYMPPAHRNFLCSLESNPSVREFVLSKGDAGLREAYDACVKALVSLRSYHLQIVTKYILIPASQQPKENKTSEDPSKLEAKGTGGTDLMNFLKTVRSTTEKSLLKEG
methodDescription: IDO1 enzymatic assay (NFK quantified by LCMS)
Assay type: biochemical
experimentalParameters: 2 nM enzyme, 5 μM L-tryptophan, pH6.5, 30 minutes pre-incubation at RT; mean values when measured multiple times; read-out: hIDO activity (IC50 in nM)
reportedMetric: IC50 (nM)

COC(=O)COc1ccc(-n2cc(C(O)c3c(C4CC4)sc4cncn34)nn2)cn1 (racemic)    40.7
Oc1ccc(Cn2cc(C(O)c3c(C4CC4)sc4cncn34)nn2)cc1 (racemic)    52.2
OC(c1cnn(-c2cccnc2)c1)c1c(C2CC2)sc2cncn12 (racemic)    43.2
CCc1sc2cncn2c1C(O)c1cn(-c2ccc(C(=O)NC)cc2)nn1 (racemic)    28.8

====

studySystem: Recombinant full-length human IDO1 (Homo sapiens)
Construct: Recombinant full-length human IDO1 with a N-terminal hexahistidine tag; hexahistidine (His6) (N); made in house; host or cells: E. coli
methodDescription: IDO1 enzymatic assay (NFK quantified by LCMS)
Assay type: biochemical
experimentalParameters: 2 nM enzyme, 5 μM L-tryptophan, pH6.5, 30 minutes pre-incubation at RT; mean values when measured multiple times; read-out: hIDO activity (IC50 in nM)
Rule for this label: MET means IC50 is less than 40 nM; NOT MET means IC50 is at least 40 nM.

OC(c1cn(Cc2ccccc2)nn1)c1c(C2CC2)sc2cncn12 (racemic)    NOT MET
CCc1sc2cncn2c1C(O)c1cn(-c2ccc(C(=O)NCCC#N)cc2)nn1 (racemic)    MET
CN1CCCC(COc2ccc(-n3cc(C(O)c4c(C5CC5)sc5cncn45)nn3)cc2)C1 (stereo not shown)    NOT MET
CN(C)CCOc1ccc(-n2cc(C(O)c3c(C4CC4)sc4cncn34)nn2)cc1 (racemic)    NOT MET
COc1ccc(-n2nnc(C(O)c3c(C4CC4)sc4cncn34)c2C)c(C)c1 (racemic)    MET
OC[C@H](O)COc1ccc(-n2cc(C(O)c3c(C4CC4)sc4cncn34)nn2)cc1 (mixture of isomers)    MET
OC(c1cnn(-c2ccc3c(c2)OCCO3)c1)c1c(C2CC2)sc2cncn12 (racemic)    NOT MET
CCc1sc2cncn2c1C(O)c1cn(-c2ccc(C(=O)N(C)CC)cc2)nn1 (racemic)    NOT MET
Oc1ccc(-n2cc(C(O)c3c([C@@H]4C[C@@H]4F)sc4cncn34)nn2)cc1Cl (relative stereo)    MET
CCc1sc2cncn2c1C(O)c1cn(-c2ccc(S(=O)(=O)N(CC)CC)cc2)nn1 (racemic)    NOT MET
CCc1sc2cncn2c1C(O)c1cn(-c2ccc3c(c2)C(C)NS3(=O)=O)nn1 (stereo not shown)    NOT MET
O=C(NCCCO)c1ccc(-n2cc(C(O)c3c(C4CC4)sc4cncn34)nn2)cc1 (racemic)    MET
COc1ccc(-c2ccc(C(O)c3c(C4CC4)sc4cncn34)s2)cc1 (racemic)    NOT MET
Cn1cc(-n2cc(C(O)c3c(C4CC4)sc4cncn34)nn2)cn1 (racemic)    NOT MET
OC(c1cnn(-c2ccccc2)n1)c1c(C2CC2)sc2cncn12 (racemic)    NOT MET
OC(c1ccc(-c2ccccc2)cc1)c1c(C2CC2)sc2cncn12 (racemic)    NOT MET

====

studySystem: Recombinant full-length human IDO1 (Homo sapiens, UniProt P14902)
Construct: Recombinant full-length human IDO1 with a N-terminal hexahistidine tag; hexahistidine (His6) (N); made in house; host or cells: E. coli
methodDescription: IDO1 enzymatic assay (NFK quantified by LCMS)
Type: biochemical
experimentalParameters: 2 nM enzyme, 5 μM L-tryptophan, pH6.5, 30 minutes pre-incubation at RT; mean values when measured multiple times; read-out: hIDO activity (IC50 in nM)
Measured IC50 by item
reportedMetric: IC50 (nM)

NC(=O)c1ccc(-n2cc(C(O)c3c(C4CC4)sc4cncn34)nn2)cc1 (racemic)    14.9
Cc1sc2cncn2c1C(O)c1cnc(-c2ccccc2)s1 (racemic)    734
COc1ccc(-n2cc(C(O)c3c(C4CC4)sc4cncn34)nn2)cc1Cl (racemic)    7.56
OC(c1ccc(-c2ccccc2)s1)c1c(C2CC2)sc2cncn12 (racemic)    317

====

studySystem: Recombinant human TDO comprising amino acids 19-407 (Homo sapiens, UniProt P48775)
Construct: Recombinant human TDO comprising amino acids 19-407 with a N-terminal hexahistidine tag; hexahistidine (His6) (N); made in house; host or cells: E. coli
Sequence (P48775 19-406 limits assumed): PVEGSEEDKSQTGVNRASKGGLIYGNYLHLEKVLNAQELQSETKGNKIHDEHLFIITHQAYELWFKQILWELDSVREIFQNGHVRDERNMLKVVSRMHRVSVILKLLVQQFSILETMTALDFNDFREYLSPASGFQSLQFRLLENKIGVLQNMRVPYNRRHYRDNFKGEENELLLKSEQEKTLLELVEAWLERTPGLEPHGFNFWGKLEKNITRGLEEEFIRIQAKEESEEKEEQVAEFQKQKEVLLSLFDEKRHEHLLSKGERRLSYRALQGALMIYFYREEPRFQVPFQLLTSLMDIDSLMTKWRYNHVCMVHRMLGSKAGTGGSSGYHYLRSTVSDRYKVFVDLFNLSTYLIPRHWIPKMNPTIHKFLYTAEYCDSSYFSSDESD
methodDescription: TDO2 enzymatic assay (NFK quantified by LCMS)
Type: biochemical
experimentalParameters: 15 nM enzyme, 200 μM L-tryptophan, pH7, 30 minutes pre-incubation at RT; mean values when measured multiple times; read-out: hTDO activity (IC50 in nM)
Entries and their IC50
reportedMetric: IC50

OC(c1cn(-c2cncnc2)nn1)c1c(C2CC2)sc2cncn12 (racemic) [Example 19]    > 10200 nM
OC(c1cn(-c2ccccc2)nn1)c1c(C(F)(F)F)sc2cncn12 (racemic) [Example 133]    > 10200 nM
CCc1sc2cncn2c1C(O)c1cn(-c2ccc(C(N)=O)cc2)nn1 (racemic) [Example 116]    5210 nM
OCC1(c2ccc(-n3cc(C(O)c4c(C5CC5)sc5cncn45)nn3)cc2)CC1 (racemic) [Example 40]    > 10200 nM
CC(C)Oc1ccc(-n2cc(C(O)c3c(C4CC4)sc4cncn34)nn2)cc1 (racemic) [Example 33]    > 10200 nM
COc1ccc(-n2cc(C(O)c3c(C4CC4)sc4cncn34)nn2)c(OC)n1 (racemic) [Example 81]    > 10200 nM
OC(c1cn(-c2cccc(C(F)(F)F)c2)nn1)c1c(C2CC2)sc2cncn12 (racemic) [Example 5]    > 10200 nM
CCc1sc2cncn2c1C(O)c1cn(-c2ccc(NC(N)=O)cc2)nn1 (racemic) [Example 131]    2150 nM
OC(c1cnn(-c2ccccc2)n1)c1c(C2CC2)sc2cncn12 (racemic) [Example 158]    5440 nM
COc1ccc(-n2cc(C(O)c3c(C4CC4)sc4cncn34)nn2)c(C)c1 (racemic) [Example 306]    > 10200 nM
O=c1[nH]c2ccc(-n3cc(C(O)c4c(C5CC5)sc5cncn45)nn3)cc2o1 (racemic) [Example 179]    > 10200 nM
CNC(=O)c1ccc(-n2cc(C(O)c3c(C4CC4)sc4cncn34)nn2)cc1 (racemic) [Example 182]    > 10200 nM
OC(c1cnn(-c2ccc3c(c2)OCCO3)c1)c1c(C2CC2)sc2cncn12 (racemic) [Example 222]    7880 nM
Cc1sc2cncn2c1C(O)c1cn(-c2cncc3ccccc23)nn1 (racemic) [Example 61]    > 10200 nM
Oc1ccc(-n2cc(C(O)c3c(C4CC4)sc4cncn34)nn2)c(Cl)c1 (racemic) [Example 212]    6190 nM
C=CCNC(=O)c1ccc(-n2cc(C(O)c3c(CC)sc4cncn34)nn2)cc1 (racemic) [Example 129]    9780 nM
COc1ccc(-n2nnc(C(O)c3c(C4CC4)sc4cncn34)c2C2CC2)cc1 (racemic) [Example 281]    9020 nM
OC(c1nnc(-c2ccccc2)o1)c1c(C2CC2)sc2cncn12 (racemic) [Example 157]    > 10200 nM
OC(c1cn(-c2ccc(OCc3ccccn3)cc2)nn1)c1c(C2CC2)sc2cncn12 (racemic) [Example 203]    > 10200 nM
OC(c1cn(-c2cccc3cc[nH]c23)nn1)c1c(C2CC2)sc2cncn12 (racemic) [Example 27]    > 10200 nM
CC(C)(O)CCOc1ccc(-n2cc(C(O)c3c(C4CC4)sc4cncn34)nn2)cc1 (racemic) [Example 140]    > 10200 nM
OC(c1cn(-c2ccc(OCC3CCCCO3)cc2)nn1)c1c(C2CC2)sc2cncn12 (stereo not shown) [Example 143]    > 10200 nM
OC(c1cn(-c2ccc(OCC3CCCO3)cc2)nn1)c1c(C2CC2)sc2cncn12 (racemic) [Example 90]    > 10200 nM
CCc1sc2cncn2c1C(O)c1cn(-c2ccc(OCCCO)c(Cl)c2)nn1 (racemic) [Example 320]    7780 nM
NS(=O)(=O)CCCOc1ccc(-n2cc(C(O)c3c(C4CC4)sc4cncn34)nn2)cc1 (racemic) [Example 206]    > 10200 nM
Cc1sc2cncn2c1C(O)c1cnn(-c2ccccc2)c1C (racemic) [Example 98]    864 nM
COc1ccc(-n2cc(C(O)c3c(C4CC4)sc4cncn34)nn2)cc1Br (racemic) [Example 290]    > 10200 nM
COc1ccc(-n2cc(C(O)c3c(C4CC4)sc4cncn34)nn2)cc1I (racemic) [Example 291]    > 10200 nM
O=[N+]([O-])c1cc(-n2cc(C(O)c3c(C4CC4)sc4cncn34)nn2)ccc1O (racemic) [Example 248]    4710 nM
COc1ccc(-n2cc(C(O)c3c([C@@H]4C[C@H]4F)sc4cncn34)nn2)cc1 (relative stereo) [Example 94]    > 10200 nM
CC(C)(C)C(=O)Nc1ccc(-n2cc(C(O)c3c(C4CC4)sc4cncn34)nn2)cc1 (racemic) [Example 187]    > 10200 nM
